Sourced from paper PMC6422312

Molecular target: P-gp Q132R mutant (Homo sapiens, UniProt P08183, Q132R)
Sequence (P08183 whole entry Q132R): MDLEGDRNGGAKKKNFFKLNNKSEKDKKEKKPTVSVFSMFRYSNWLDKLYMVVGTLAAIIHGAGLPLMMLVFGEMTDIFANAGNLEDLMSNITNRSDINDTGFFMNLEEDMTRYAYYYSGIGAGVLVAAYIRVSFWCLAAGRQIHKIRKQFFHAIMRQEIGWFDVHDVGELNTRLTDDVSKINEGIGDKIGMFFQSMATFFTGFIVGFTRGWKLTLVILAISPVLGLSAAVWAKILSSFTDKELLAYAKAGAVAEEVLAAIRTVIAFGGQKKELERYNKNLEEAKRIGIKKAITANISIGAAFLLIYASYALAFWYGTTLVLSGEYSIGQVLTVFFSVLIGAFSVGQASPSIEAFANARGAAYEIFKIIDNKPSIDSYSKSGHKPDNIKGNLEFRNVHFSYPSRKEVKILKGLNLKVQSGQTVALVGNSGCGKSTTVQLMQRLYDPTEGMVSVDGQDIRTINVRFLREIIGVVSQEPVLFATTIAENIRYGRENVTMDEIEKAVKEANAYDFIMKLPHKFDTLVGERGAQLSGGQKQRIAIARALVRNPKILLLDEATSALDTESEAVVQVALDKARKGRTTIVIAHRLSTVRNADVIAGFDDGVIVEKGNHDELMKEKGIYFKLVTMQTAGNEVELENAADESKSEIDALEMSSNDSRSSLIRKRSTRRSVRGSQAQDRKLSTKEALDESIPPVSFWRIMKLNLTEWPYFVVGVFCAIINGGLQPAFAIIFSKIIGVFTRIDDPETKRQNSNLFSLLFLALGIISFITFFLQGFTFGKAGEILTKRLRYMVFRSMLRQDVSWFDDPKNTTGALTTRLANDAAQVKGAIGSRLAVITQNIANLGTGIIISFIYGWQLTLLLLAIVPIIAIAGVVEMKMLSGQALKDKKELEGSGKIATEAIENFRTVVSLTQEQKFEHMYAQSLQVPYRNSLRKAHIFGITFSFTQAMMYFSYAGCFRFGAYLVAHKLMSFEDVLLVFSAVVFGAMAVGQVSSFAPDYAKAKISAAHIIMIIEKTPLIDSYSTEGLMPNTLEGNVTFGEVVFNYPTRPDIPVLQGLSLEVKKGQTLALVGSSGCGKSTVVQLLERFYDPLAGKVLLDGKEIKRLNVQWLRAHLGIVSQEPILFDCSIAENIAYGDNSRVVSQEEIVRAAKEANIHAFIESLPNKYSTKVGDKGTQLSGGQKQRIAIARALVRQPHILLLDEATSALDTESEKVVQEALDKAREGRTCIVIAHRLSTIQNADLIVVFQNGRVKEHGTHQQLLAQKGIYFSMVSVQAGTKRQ
Test: cell-based
pIC50: −log10 of the molar value.
Experimental Endpoint: pIC50

1: O=C(CCc1ccccc1)c1ccccc1OCC(O)CN1CCN(c2ccc(F)cc2)CC1 (centres unmarked) [GPV31]
2: CCCN(CC(O)COc1ccccc1C(=O)CCc1ccccc1)C(=O)c1ccccc1 (centres unmarked) [GPV366]
Exam item: Which numeric pIC50 is bigger, that of 1 or that of 2 ? Kindly state the label of the option you pick.
Marked response: 1
(1: 6.15, 2: 5.58)

* * *

Biological target: P-gp Q773A mutant (Homo sapiens, UniProt P08183, Q773A)
Sequence (P08183 whole entry Q773A): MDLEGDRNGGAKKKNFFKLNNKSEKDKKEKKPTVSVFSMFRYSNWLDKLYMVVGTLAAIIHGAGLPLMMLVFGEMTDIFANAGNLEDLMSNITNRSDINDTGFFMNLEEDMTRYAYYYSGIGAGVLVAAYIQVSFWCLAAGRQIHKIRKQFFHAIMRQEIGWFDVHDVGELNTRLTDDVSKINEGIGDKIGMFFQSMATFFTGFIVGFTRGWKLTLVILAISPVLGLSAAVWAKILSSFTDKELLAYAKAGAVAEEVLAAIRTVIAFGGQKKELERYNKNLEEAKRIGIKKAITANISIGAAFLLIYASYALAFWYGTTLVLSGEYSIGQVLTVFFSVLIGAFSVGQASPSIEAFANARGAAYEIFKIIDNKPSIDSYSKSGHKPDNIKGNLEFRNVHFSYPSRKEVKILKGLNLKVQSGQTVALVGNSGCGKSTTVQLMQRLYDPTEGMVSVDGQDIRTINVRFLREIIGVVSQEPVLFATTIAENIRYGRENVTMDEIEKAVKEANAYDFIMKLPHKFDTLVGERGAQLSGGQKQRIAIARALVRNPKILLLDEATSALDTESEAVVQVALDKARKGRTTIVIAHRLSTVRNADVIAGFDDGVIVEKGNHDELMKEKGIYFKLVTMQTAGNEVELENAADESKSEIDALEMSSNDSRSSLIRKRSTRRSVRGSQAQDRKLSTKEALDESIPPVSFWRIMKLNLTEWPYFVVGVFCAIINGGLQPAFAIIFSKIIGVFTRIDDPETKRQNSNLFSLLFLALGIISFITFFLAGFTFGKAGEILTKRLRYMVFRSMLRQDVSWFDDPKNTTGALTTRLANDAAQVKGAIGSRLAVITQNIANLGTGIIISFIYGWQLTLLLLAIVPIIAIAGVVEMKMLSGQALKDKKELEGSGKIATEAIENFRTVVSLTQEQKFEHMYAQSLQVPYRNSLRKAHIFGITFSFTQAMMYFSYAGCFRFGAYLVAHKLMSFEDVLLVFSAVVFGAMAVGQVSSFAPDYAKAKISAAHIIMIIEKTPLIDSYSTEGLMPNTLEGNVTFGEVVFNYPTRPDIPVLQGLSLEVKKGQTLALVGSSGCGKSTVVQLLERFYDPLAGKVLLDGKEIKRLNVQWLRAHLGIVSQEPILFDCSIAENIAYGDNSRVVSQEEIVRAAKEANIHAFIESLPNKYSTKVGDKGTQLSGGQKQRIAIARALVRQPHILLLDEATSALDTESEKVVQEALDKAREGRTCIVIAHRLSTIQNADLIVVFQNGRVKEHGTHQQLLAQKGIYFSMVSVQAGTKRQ
Experiment: cell-based
Experimental Endpoint: IC50 (nM)

P: O=C(CCc1ccccc1)c1ccccc1OCC(O)CN1CCN(c2ccc(F)cc2)CC1 (centres unmarked)
Q: CCCN(CC(O)COc1ccccc1C(=O)CCc1ccccc1)C(=O)c1ccccc1 (centres unmarked)
Exam item: Between P and Q , whose measured IC50 reads higher? Could you answer with the label of the item you picked?
Marked response: Q

* * *

Biological target: P-gp Q773R mutant (Homo sapiens, UniProt P08183, Q773R)
Sequence (P08183 whole entry Q773R): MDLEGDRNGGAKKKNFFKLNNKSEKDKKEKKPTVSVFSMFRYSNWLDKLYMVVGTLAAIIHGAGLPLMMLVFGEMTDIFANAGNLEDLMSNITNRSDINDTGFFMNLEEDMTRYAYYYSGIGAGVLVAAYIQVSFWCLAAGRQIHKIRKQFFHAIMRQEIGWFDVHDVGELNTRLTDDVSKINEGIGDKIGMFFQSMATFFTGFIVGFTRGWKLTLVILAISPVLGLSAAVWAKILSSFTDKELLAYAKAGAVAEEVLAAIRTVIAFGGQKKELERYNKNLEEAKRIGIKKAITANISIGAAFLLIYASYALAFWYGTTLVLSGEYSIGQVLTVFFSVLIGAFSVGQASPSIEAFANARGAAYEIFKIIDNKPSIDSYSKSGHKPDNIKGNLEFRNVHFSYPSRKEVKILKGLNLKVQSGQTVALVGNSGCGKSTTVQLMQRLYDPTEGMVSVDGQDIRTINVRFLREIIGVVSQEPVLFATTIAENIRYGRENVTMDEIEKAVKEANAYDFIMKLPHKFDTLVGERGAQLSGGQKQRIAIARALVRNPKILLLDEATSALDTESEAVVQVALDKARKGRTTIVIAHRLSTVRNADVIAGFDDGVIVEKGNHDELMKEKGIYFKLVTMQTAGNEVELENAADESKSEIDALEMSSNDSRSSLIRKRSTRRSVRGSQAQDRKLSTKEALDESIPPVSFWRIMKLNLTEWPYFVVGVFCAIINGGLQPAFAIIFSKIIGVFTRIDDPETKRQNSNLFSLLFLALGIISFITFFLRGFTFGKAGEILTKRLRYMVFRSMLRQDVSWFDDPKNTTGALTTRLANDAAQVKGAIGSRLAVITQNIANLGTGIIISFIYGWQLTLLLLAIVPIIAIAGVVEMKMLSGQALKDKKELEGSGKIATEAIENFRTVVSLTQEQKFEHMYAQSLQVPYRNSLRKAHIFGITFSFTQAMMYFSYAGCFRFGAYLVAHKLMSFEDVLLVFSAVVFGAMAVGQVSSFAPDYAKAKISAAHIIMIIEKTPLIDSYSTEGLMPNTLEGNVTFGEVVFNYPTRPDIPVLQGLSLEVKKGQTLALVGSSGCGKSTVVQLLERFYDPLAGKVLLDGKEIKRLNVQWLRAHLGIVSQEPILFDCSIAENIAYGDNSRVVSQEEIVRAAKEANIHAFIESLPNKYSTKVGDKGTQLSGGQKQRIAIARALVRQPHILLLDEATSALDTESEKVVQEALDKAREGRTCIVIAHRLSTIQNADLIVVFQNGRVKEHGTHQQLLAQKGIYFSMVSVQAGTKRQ
Test: cell-based
Conditions: IC50 for rhodamine123 efflux inhibition, HEK-293/EBNA cells
Experimental Endpoint: IC50 (nM)

a: O=C(CCc1ccccc1)c1ccccc1OCC(O)CN1CCN(c2ccc(F)cc2)CC1 (centres unmarked)
b: CCCN(CC(O)COc1ccccc1C(=O)CCc1ccccc1)C(=O)c1ccccc1 (centres unmarked)
Exam item: Compare reported IC50 values for a and b . Which is lower? Mark your answer with the label of the selected entry.
Marked response: a
